All figures here come from ChEMBL document CHEMBL4130482.

Tested on: Leishmania donovani
Experiment: Antileishmanial activity against […] amastigote form of Leishmania donovani after 72 hrs by Alamar blue assay
Format: functional, organism-based
Entries and their IC50

These solved cases illustrate the format of a correct answer.
| molecule | quantity | data_value |
| --- | --- | --- |
| CCCCCCCCCCCCCCCCC1=NC(C)CCC1 (centres undefined) | IC50 | > 10 µg/mL |
| C[C@@H]1[C@H](O)[C@@H](C)/C=C/C=C/C=C/C=C/C=C/C=C/C=C/[C@H](O[C@@H]2O[C@H](C)[C@@H](O)[C@H](N)[C@@H]2O)C[C@@H]2O[C@](O)(C[C@@H](O)C[C@@H](O)[C@H](O)CC[C@@H](O)C[C@@H](O)CC(=O)O[C@H]1C)C[C@H](O)[C@H]2C(=O)O | IC50 | 0.9 µg/mL |
| CCCCCCCCCCCCCCC1=NC(C)CCC1 (centres undefined) | IC50 | > 10 µg/mL |

Quick note, IC50 for CCCCCCCCCCCCCCCC1=NC(C)CCC1 (centres undefined) landed at > 10 µg/mL

* * *

Assay: Cytotoxicity against human THP1 cells
Assay type: cell-based, THP-1
Conditions: human, THP-1 cells
Entries and their IC90

| molecule | IC90 |
| --- | --- |
| CCCCCCCCCCCCCCCC1=NC(C)CCC1 (centres undefined) | > 10 µg/mL |

Quick note, IC90 for CCCCCCCCCCCCCCCCC1=NC(C)CCC1 (centres undefined) landed at > 10 µg/mL

Quick note, IC90 for "C[C@@H]1[C@H](O)[C@@H](C)/C=C/C=C/C=C/C=C/C=C/C=C/C=C/[C@H](O[C@@H]2O[C@H](C)[C@@H](O)[C@H](N)[C@@H]2O)C[C@@H]2O[C@](O)(C[C@@H](O)C[C@@H](O)[C@H](O)CC[C@@H](O)C[C@@H](O)CC(=O)O[C@H]1C)C[C@H](O)[C@H]2C(=O)O" landed at > 2 µg/mL

Quick note, IC90 for CCCCCCCCCCCCCCC1=NC(C)CCC1 (centres undefined) landed at > 10 µg/mL

* * *

Entries and their IC50
Test system: Trypanosoma brucei
Assay: Antitrypanosomal activity against trypomastigote form of Trypanosoma brucei after 72 hrs by Alamar blue assay
Assay type: functional, organism-based
Output spec: scalar in µg/mL, unitless text.

These solved cases illustrate the format of a correct answer.
| compound | u | IC50 |
| --- | --- | --- |
| CCCCCCCCCCCCCCCC1=NC(C)CCC1 (centres undefined) | µg/mL | 2.7 |
| CCCCCCCCCCCCCCC1=NC(C)CCC1 (centres undefined) | µg/mL | 4 |
| CCCCCCCCCCCCCCCCC1=NC(C)CCC1 (centres undefined) | µg/mL | 3.5 |

Quick note, IC50 for NCCCC(N)(C(=O)O)C(F)F (centres undefined) landed at 6.1

* * *

Test system: Cryptococcus neoformans
Experiment: Antimicrobial activity against Cryptococcus neoformans ATCC 90113 after 72 hrs by CLSI method
Format: functional, organism-based
Conditions: ATCC 90113, 72 h
quantity: MIC (µg/mL)
Output spec: scalar in µg/mL, unitless text.

These solved cases illustrate the format of a correct answer.
| compound | u | MIC |
| --- | --- | --- |
| CCCCCCCCCCCCCCCCC1=NC(C)CCC1 (centres undefined) | µg/mL | 20 |
| CCCCCCCCCCCCCCC1=NC(C)CCC1 (centres undefined) | µg/mL | 13.3 |
| CCCCCCCCCCCCCCCC1=NC(C)CCC1 (centres undefined) | µg/mL | 10 |

# ---- query compound ----
Quick note, MIC for "C[C@@H]1[C@H](O)[C@@H](C)/C=C/C=C/C=C/C=C/C=C/C=C/C=C/[C@H](O[C@@H]2O[C@H](C)[C@@H](O)[C@H](N)[C@@H]2O)C[C@@H]2O[C@](O)(C[C@@H](O)C[C@@H](O)[C@H](O)CC[C@@H](O)C[C@@H](O)CC(=O)O[C@H]1C)C[C@H](O)[C@H]2C(=O)O" landed at 0.1
